- test_protocol: Second sacrificial agent testing protocol: paste air measurements with DDBS (0.0125 wt %) and rating; note: key: 0: Fail; 1: Poor; 2: Good; 3: Preferred; 4: Most preferred
- condition_set: sum of ratings of air entrainment recovery by 0.05% and 0.1% SA; DDBS 0.0125 wt %, 50:50 B1 fly ash:cement paste
Provide the recorded Overall performance rating (second protocol rating) for the entries that follow.
In your answer, state the number alone without any accompanying words.

Output measured Overall performance rating (second protocol rating) for this item: `NCCOCCO`
1

Output measured Overall performance rating (second protocol rating) for this item: `CNC(=O)NC`
2

Output measured Overall performance rating (second protocol rating) for this item: CCCCCCCC/C=C\CCCCCCCC(=O)OC [Methyloleate]
2

Output measured Overall performance rating (second protocol rating) for this item: `Nc1ccccc1`
2

Output measured Overall performance rating (second protocol rating) for this item: `CCCCNC(N)=O`
4

Output measured Overall performance rating (second protocol rating) for this item: `CCCOCCO`
4

Output measured Overall performance rating (second protocol rating) for this item: CCOC(=O)CC [Ethylpropionate]
3

Output measured Overall performance rating (second protocol rating) for this item: COC(C)COC(C)CO (stereo not drawn)
4

Output measured Overall performance rating (second protocol rating) for this item: `CCc1ccc(S(=O)(=O)O)cc1`
3

Output measured Overall performance rating (second protocol rating) for this item: `CC(C)COCCO`
4

Output measured Overall performance rating (second protocol rating) for this item: CCCCCCCCCCCC(=O)OC [Methyllaurate]
1

Output measured Overall performance rating (second protocol rating) for this item: `O=C(O)c1ccc2ccccc2c1`
1

Output measured Overall performance rating (second protocol rating) for this item: `OCc1ccccc1`
3

Output measured Overall performance rating (second protocol rating) for this item: CCCCCC(=O)OCC [Ethylcaproate]
1

Output measured Overall performance rating (second protocol rating) for this item: CC(O)COc1ccccc1 (stereo not drawn)
4

Output measured Overall performance rating (second protocol rating) for this item: `CC(=O)CC(C)C`
2

Output measured Overall performance rating (second protocol rating) for this item: `CCC(O)CC`
4

Output measured Overall performance rating (second protocol rating) for this item: CCCCCCCC(=O)OC [Methyloctanoate]
2
